# Tested on: Escherichia coli
# MEASUREMENT_CONDITIONS: Concentration 32 ug.mL-1; ASSAY_TEST Inhibition of Bacterial Growth; detection method Absorption (OD600); MEDIA CAMHB; plate type 384well; NBS; CORNING #3640; time 18 hr
# Description: Antibacterial activity against Escherichia coli ATCC 25922 (CO-ADD:GN_001); MIC in CAMBH media using NBS plates, by OD(600)
Potency and affinity values are given separately.
Property: Inhibition; scope: individual compounds

The following compounds have reported results that may help.
>>> obs_value("N#Cc1ccccc1-c1ccc(Cn2c(-c3cscn3)nc3ccc(Cl)cc32)cc1")
"-6.57%"
>>> obs_value("CCc1ccc(Nc2nc(N)c(-c3nc4ccccc4c(=O)n3-c3ccccc3)s2)cc1")
"-0.69%"
>>> obs_value("N#Cc1ccc(Cn2c(-c3cscn3)nc3c(Cl)cccc32)cc1")
"-8.14%"

Ask: For the compound Nc1nc(Nc2ccc(Cl)cc2)sc1-c1nc2ccccc2c(=O)n1-c1ccccc1 , what Inhibition is on record?
Reply: -2.8%

Ask: For the compound Clc1ccc2nc(-c3cscn3)n(Cc3ccccc3)c2c1 , what Inhibition is on record?
Reply: -8.13%

Ask: For the compound Nc1nc(Nc2ccccc2)sc1-c1nc2ccccc2c(=O)n1-c1ccccc1 , what Inhibition is on record?
Reply: 1.98%

Ask: For the compound O=[N+]([O-])c1ccc(Cn2c(-c3cscn3)nc3ccccc32)cc1 , what Inhibition is on record?
Reply: -6.04%

Ask: For the compound Clc1cccc2c1nc(-c1cscn1)n2Cc1ccccc1 , what Inhibition is on record?
Reply: -9.3%

Ask: For the compound N#Cc1ccccc1-c1ccc(Cn2c(-c3cscn3)nc3c(Cl)cccc32)cc1 , what Inhibition is on record?
Reply: 1.52%

Ask: For the compound N=C(Nc1ccccc1Cl)c1cscn1 , what Inhibition is on record?
Reply: 18.4%

Ask: For the compound Nc1nc(Nc2ccccc2)sc1-c1nc2ccccc2c(=O)n1-c1ccc(Cl)cc1 , what Inhibition is on record?
Reply: -14.74%

Ask: For the compound CC(C)c1ccc(Cn2c(-c3cscn3)nc3c(Cl)cccc32)cc1 , what Inhibition is on record?
Reply: -0.45%

Ask: For the compound CCc1ccc(-n2c(-c3sc(Nc4ccccc4)nc3N)nc3ccccc3c2=O)cc1 , what Inhibition is on record?
Reply: -7.31%

Ask: For the compound Clc1ccc2c(c1)nc(-c1cscn1)n2Cc1ccccc1 , what Inhibition is on record?
Reply: -7.11%

Ask: For the compound Fc1cc(Cn2c(-c3cscn3)nc3c(Cl)cccc32)cc(C(F)(F)F)c1 , what Inhibition is on record?
Reply: 3.26%

Value source: ChEMBL document CHEMBL4513154
